testSystem: T1, 4H2649-AA
T1 chain: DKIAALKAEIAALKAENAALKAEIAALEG
assayName: two-hybrid library CCmax;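 also: natural log of median RNA to DNA barcode read ratio; higher means stronger binding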
runConditions: mean of both orientations
# strict inequality: interaction score < -0.4 yields class 1, everything else yields class 0

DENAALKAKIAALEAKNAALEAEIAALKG [4H1842-AA]    class 1
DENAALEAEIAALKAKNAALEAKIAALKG [4H1142-AA]    class 0
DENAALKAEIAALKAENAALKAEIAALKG [4H1626-AA]    class 0
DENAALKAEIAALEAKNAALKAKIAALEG [4H1597-AA]    class 1
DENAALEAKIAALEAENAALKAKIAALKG [4H1310-AA]    class 0

Query: I wonder whether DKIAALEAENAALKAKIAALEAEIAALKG [4H2274-AA] has interaction score below -0.4. Can you tell?
Result: class 1
